For each entry below, report its IC50 value.
- experimental-system: T1, recombinant human TL1A (human, UniProt O95150 71-251)
- T1 construct: Homotrimeric cytokine; biotinylated with Sulfo-NHS-biotin where captured for SPR, coated unlabelled in ELISA, soluble in bioassays; also called TNFSF15
- T1 chain: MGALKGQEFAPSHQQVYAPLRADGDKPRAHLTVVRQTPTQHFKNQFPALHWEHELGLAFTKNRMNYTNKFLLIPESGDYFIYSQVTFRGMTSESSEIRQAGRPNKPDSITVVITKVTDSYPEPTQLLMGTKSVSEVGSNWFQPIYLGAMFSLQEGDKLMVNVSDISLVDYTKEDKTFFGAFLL
- assay-explanation: competition ELISA, coated TL1A, competitor bio-TL1A-0002
Give bare numbers, in nM.

Given the binder TL1A-0042 (antibody, human IgG1, kappa, V domains shown, parental heavy chain with IGKV1-39*01 light chain; human IgG1 effector-function-minimized/kappa) VH: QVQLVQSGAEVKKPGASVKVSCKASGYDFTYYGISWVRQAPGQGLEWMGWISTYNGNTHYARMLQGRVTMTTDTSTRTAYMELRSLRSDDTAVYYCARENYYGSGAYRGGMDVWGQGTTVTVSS VL: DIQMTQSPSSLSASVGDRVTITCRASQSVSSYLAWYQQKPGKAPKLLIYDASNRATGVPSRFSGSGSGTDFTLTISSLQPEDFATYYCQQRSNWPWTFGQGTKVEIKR , what is its reported IC50?
4.2

Attention now turns to another entry.
What does the record list as IC50 for TL1A-0285 (antibody, human IgG1, kappa, V domains shown, human IgG1 effector-function-minimized/kappa) VH: QVQLVQSGAEVKKPGASVKVSCKASGYDFTYYGVSWVRQAPGQGLEWMGWISTYNDNTHYAPSLQGRVTMTTDTSTSTAYMELRSLRSDDTAVYYCARESYYGSGAHRGGMDVWGQGTTVTVSS VL: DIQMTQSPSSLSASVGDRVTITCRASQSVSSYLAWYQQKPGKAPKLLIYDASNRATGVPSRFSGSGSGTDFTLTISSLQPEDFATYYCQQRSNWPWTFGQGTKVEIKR ?
8.6
